# STUDY_SYSTEM: T1, β-catenin (UniProt P35222 1-781, limits assumed)
# T1 construct: also called beta-catenin
# T1 sequence (looked up): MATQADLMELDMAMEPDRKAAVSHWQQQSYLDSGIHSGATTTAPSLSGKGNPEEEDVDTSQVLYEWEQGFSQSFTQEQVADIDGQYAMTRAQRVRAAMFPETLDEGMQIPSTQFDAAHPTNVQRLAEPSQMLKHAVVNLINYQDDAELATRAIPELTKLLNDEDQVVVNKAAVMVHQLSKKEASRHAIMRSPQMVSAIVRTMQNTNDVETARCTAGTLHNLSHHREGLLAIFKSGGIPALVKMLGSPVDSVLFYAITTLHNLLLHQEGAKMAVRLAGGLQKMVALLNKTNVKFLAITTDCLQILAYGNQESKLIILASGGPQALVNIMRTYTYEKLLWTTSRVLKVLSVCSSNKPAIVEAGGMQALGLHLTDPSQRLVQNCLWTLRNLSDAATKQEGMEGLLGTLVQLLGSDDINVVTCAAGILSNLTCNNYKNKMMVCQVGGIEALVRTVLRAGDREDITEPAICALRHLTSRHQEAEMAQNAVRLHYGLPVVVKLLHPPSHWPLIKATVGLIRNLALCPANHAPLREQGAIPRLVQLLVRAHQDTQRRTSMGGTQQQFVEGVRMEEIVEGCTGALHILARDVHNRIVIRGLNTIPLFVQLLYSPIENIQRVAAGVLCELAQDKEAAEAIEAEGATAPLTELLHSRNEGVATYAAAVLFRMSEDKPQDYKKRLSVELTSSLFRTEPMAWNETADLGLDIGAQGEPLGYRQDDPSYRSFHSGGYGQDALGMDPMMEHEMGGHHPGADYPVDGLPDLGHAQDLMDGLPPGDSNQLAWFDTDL
# EXPERIMENT: ALPHA Screen (BCL9/β-catenin);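 note: bead proximity readout with the polypeptide linked to donor beads and β-catenin fixed on acceptor beads, their binding bringing the beads close enough to emit signal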
pIC50: −log10 of the molar value. Bridges are numbered along the chain shown (N, C = ends). Primed or numbered codes have the meaning given here. Where no end group is shown, it is not given here. [ ]: non-standard residue; d: D form. The star is where a group is joined. S5′ = (S)-2-(4'-pentenyl)alanine, olefinic stapling residue closed by ring-closing metathesis; NMeQ′ = N-methylglutamine (N-alpha-methyl, stereo named both D and L in the filing); NMeR′ = N-methylarginine (methylation site not shown in the text); PEG4″ = PEG4 (tetraethylene glycol) spacer; 2Nal = N[C@@H](Cc1ccc2ccccc2c1)C(=O)O; NMeCha = CN[C@@H](CC1CCCCC1)C(=O)O; NMeR = CN[C@@H](CCCNC(=N)N)C(=O)O; Palmitoyl = CCCCCCCCCCCCCCCC(=O)*; NMeT = CN[C@H](C(=O)O)[C@@H](C)O; hArg = N=C(N)NCCCC[C@H](N)C(=O)O; NMeE = CN[C@@H](CCC(=O)O)C(=O)O; NMeQ = CN[C@@H](CCC(N)=O)C(=O)O; dNMeQ = CN[C@H](CCC(N)=O)C(=O)O; Cha = N[C@@H](CC1CCCCC1)C(=O)O; Cba = N[C@@H](CC1CCC1)C(=O)O; S5 = C=CCCC[C@](C)(N)C(=O)O; Abu = CC[C@H](N)C(=O)O; βAla = NCCC(=O)O
Listed here are binders together with their documented pIC50.
METRIC: pIC50

BINDER | QUANTITATIVE_RESULT
{Palmitoyl-PEG4″}-L[NMeQ′]TLR[S5]IQR[S5][Cba][2Nal]-NH2 (staple 6-10; also: Q2 N-methyl: stated both D and L) [SEQ ID NO: 213] | 6.33
Ac-HQERSLQTLR[S5]IQR[S5]L[2Nal]-NH2 (staple 11-15; not fully specified; printed as HQERSLQTLRXIQRXL(2-Nal)) [SEQ ID NO: 11] | 5.68
Ac-HR[NMeE]RSL[NMeQ]TLR[S5]IQR[S5][Cba][2Nal]-NH2 (staple 11-15) [SEQ ID NO: 154] | 6.18
Ac-HRQRS[NMeCha][NMeQ]TLR[S5]IQR[S5][Cha][2Nal]-NH2 (staple 11-15; also: N-MeGln at 7: D or L (both stated)) [SEQ ID NO: 186] | 6.63
L[dNMeQ]TLR[S5]I[dNMeQ]R[S5][Cba][2Nal] (staple 6-10; not fully specified (N-terminus, C-terminus); printed as L(N-methylQ)TLRXI(N-methylQ)RX(CBA)(2-Nal), X/X stapled, (S) α-methyl, N-terminal Ac, C-terminal NH2) [SEQ ID NO: 116] | 4.57
EHRERSLQTLRDIQRML[2Nal] [SEQ ID NO: 63] | 5.60
{2‑cyclohexylacetyl}-L[NMeQ]TLR[S5]IQR[S5][Cba][2Nal]-NH2 (staple 6-10; also: N-methyl-Gln at 2: filing says both D and L) [SEQ ID NO: 138] | 5.42
Ac-HRE[S5′]SLQ[S5′]LR[S5′]IQQ[S5′][Cba][2Nal]-OH (staple 11-15, 4-8) [SEQ ID NO: 83] | 4.30
Ac-L[NMeQ]TL[hArg][S5]IQR[S5][Cba][2Nal]-NH2 (staple 6-10; not fully specified; printed as L(N-methylQ)TL(homoR)XIQRX(CBA)(2-Nal)) [SEQ ID NO: 132] | 4.95
Ac-HRQRTLQTLR[S5]IQR[S5][Cba][2Nal]-NH2 (staple 11-15) [SEQ ID NO: 159] | 6.54
H-HRE[S5′]SLQ[S5′]LR[S5′]IQR[S5′][Cba][2Nal]-OH (staple 11-15, 4-8) [SEQ ID NO: 82] | 6.00
Ac-LQ[NMeT]LR[S5]IQR[S5][Cba][2Nal]-NH2 (staple 6-10; not fully specified (residue 2); printed as L(N-methylQ)(N-methylT)LRXIQRX(CBA)(2-Nal)) [SEQ ID NO: 121] | 5.30
Ac-L[NMeQ]TL[NMeR′][S5]IQR[S5][Cba][2Nal]-NH2 (staple 6-10; not fully specified; printed as L(N-methylQ)TL(N-methylR)XIQRX(CBA)(2-Nal)) [SEQ ID NO: 124] | 5.56
Ac-QLEHRERSL[S5]TLR[S5]IQR[Abu]L[2Nal][βAla][βAla]-NH2 (staple 10-14) [SEQ ID NO: 78] | 7.05
Ac-QLEHRERSL[S5]TLR[S5]IQRML[2Nal]-NH2 (staple 10-14; not fully specified; printed as QLEHRERSLXTLRXIQRML(2-Nal)) [SEQ ID NO: 36] | 6.03
Ac-L[NMeQ]TLR[S5]IQ[NMeR′][S5][Cba][2Nal]-NH2 (staple 6-10; not fully specified; printed as L(N-methylQ)TLRXIQ(N-methylR)X(CBA)(2-Nal)) [SEQ ID NO: 125] | 4.97
Ac-LQTL[NMeR][S5]IQR[S5][Cba][2Nal]-NH2 (staple 6-10; not fully specified (residue 2)) [SEQ ID NO: 117] | 5.37
